biological target: VHL/EloB/EloC (VBC) (Homo sapiens, UniProt P40337); assay: SPR, immobilised His-tagged VBC
Sequence (Q15369 whole entry): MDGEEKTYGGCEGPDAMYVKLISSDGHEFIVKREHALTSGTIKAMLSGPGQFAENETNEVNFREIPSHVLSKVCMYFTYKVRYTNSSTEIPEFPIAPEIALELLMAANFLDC
Sequence (Q15370 whole entry, further chain): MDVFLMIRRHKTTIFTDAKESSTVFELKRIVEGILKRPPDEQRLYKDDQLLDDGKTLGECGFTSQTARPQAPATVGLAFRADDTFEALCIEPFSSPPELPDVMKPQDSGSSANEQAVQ
Sequence (P40337 whole entry): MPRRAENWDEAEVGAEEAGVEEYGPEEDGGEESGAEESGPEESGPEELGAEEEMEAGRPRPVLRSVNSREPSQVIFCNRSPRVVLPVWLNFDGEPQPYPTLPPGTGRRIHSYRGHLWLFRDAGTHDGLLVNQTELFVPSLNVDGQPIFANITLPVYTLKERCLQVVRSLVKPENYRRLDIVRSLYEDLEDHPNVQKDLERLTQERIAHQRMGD
Reported values of Kd for individual entries

{"STRUCTURE SMILES": "CC(C)(C)[C@H](NC(=O)c1cnn2c1OCCC2)C(=O)N1C[C@H](O)C[C@H]1C(=O)NCc1ccc(-c2ccc(Cl)cc2Cl)cc1", "Kd (nM)": 217}
{"STRUCTURE SMILES": "CC(C)(C)[C@H](NC(=O)c1cnn2c1OCCC2)C(=O)N1C[C@H](O)C[C@H]1C(=O)NCc1ccc(-c2ccc(Cl)cc2)cc1", "Kd (nM)": 200}
{"STRUCTURE SMILES": "CC(C)(C)[C@H](NC(=O)c1cnn2c1OCCC2)C(=O)N1C[C@H](O)C[C@H]1C(=O)NCc1ccc(-c2ccccc2Cl)cc1", "Kd (nM)": 74.3}
{"STRUCTURE SMILES": "CC(C)(C)[C@H](NC(=O)c1cnn2c1CCCC2)C(=O)N1C[C@H](O)C[C@H]1C(=O)NCc1ccc(-c2ccc(Cl)cc2Cl)cc1", "Kd (nM)": 557}
{"STRUCTURE SMILES": "CC(C)(C)[C@H](NC(=O)c1cnn2c1OCCC2)C(=O)N1C[C@H](O)C[C@H]1C(=O)NCc1ccc(-c2ccccc2)cc1", "Kd (nM)": 170}
